- System: LATS2;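 further: KINOMEscan kinase panel screen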
- EXPERIMENTAL_CONDITIONS: concentration: 1 μM,replicates: in singlicate; n = 1
QUANTITY: %Inh (%)

>>> test_value("Cc1nnc(-c2ccc3occ(-c4ccc(S(C)=O)cc4)c3n2)o1 (centres unmarked)")
0
>>> test_value("Cl.Nc1n[nH]c2cc(-c3ccccn3)ccc12")
9
>>> test_value("C[C@@H](Oc1cc(-n2cnc3cc(-c4ccncc4)ccc32)sc1C(N)=O)c1ccccc1Cl")
0
>>> test_value("CS(=O)(=O)c1cccc(CNc2nc(Nc3ccc4c(c3)[C@@H]3C[C@@H]4CNC3=O)ncc2C(F)(F)F)c1")
45
>>> test_value("CCn1c(-c2nonc2N)nc2cncc(Br)c21")
79
>>> test_value("N#Cc1cccc(C(=O)NC2CCN(c3ccnc(Nc4ccc(F)cc4)n3)C2)c1 (centres unmarked)")
0
>>> test_value("CC(=O)Nc1nc2cnc(Nc3cc(NC(=O)c4cccc(CC(C)(C)C#N)c4)ccc3C)nc2s1")
47
>>> test_value("C[C@@H](Oc1cc(-n2cnc3cc(-c4cnn(C)c4)ccc32)sc1C(N)=O)c1ccccc1Cl")
2
>>> test_value("C[C@@H]1CNc2c(sc3ccc4nc(-c5ccc(O)cc5)ccc4c23)C(=O)N1")
13
>>> test_value("Cl.c1ccc(Oc2ccc(Nc3ccnc4cc(-c5ccc(CN6CCNCC6)o5)ccc34)cc2)nc1")
0
>>> test_value("Cc1cccc(-c2nc(Nc3ccncc3)c3sccc3n2)n1")
33
>>> test_value("O=C(Nc1cccc(C(F)(F)F)c1)c1cccc(Oc2ccc3nccn3n2)c1")
0
>>> test_value("O=C(Nc1n[nH]c2cc(-c3ccco3)ccc12)C1CC1")
10
>>> test_value("COc1cc2c(Nc3ccc(NC(=O)c4ccccc4)cc3)ncnc2cc1OCCCN1CCOCC1")
0
>>> test_value("COC(=O)c1cccc(NC(=O)NC2CCN(c3ccnc(Nc4cc(OC)c(OC)c(OC)c4)n3)C2)c1 (centres unmarked)")
17
>>> test_value("CCN1CCN(CCCC(=O)Nc2n[nH]c3nc(-c4ccc(O)cc4)c(Br)cc23)CC1")
0
>>> test_value("FC(F)(F)c1cc(Br)cc(Nc2nccc(-c3cnn4ncccc34)n2)c1")
6
>>> test_value("CCn1c(-c2nonc2N)nc2cncc(CNC3CCNCC3)c21.Cl")
53
>>> test_value("CCNCC(Cc1ccccc1)NC(=O)c1cc(Br)c(-c2ccnc3[nH]ccc23)s1.Cl.Cl (centres unmarked)")
82
>>> test_value("COc1cc(Nc2nccc(N3CCC(NC(=O)c4cccc(C#N)c4)C3)n2)cc(OC)c1OC (centres unmarked)")
0
>>> test_value("CNC(=O)c1ccccc1Nc1nc(Nc2cccc(CS(C)(=O)=O)c2)ncc1C.O=CO")
69
>>> test_value("O=C(NCC1CC1)c1ccc(-c2cc(C(=O)NC3CC3)ccc2F)cc1")
0
>>> test_value("CC(=O)c1c(-c2ccncc2)[nH]c(-c2ccncc2)c1C")
4
